- METHOD DESCRIPTION: melting temperature; melt of duplexes
- CONDITIONS: sodium 0.0675 M; strand 1 µM
OUTCOME MEASURE: Tm (°C)

substance="CGACGTGCTCAATGTGCTG+CAGCACATGGGGCACGTCG ((((((((.(.((((((((+)))))))).).))))))))" reading_unit=°C endpoint_value=55
substance="CGACGTGCGTTATGTGCTG+CAGCACATAACGCACGTCG (((((((((((((((((((+)))))))))))))))))))" reading_unit=°C endpoint_value=63.6
substance="CGACGTGCAATATGTGCTG+CAGCACATGCGGCACGTCG ((((((((...((((((((+))))))))...))))))))" reading_unit=°C endpoint_value=49.7
substance="CGACGTGCTTCATGTGCTG+CAGCACATACGGCACGTCG ((((((((...((((((((+))))))))...))))))))" reading_unit=°C endpoint_value=47.7
